Parameter: pIC50. Scope: all listed entries.
Experiment: Antiproliferative activity against human DND41 cells assessed as reduction in cell viability incubated for 72 hrs by IncuCyte live-cell imaging assay
Format: functional, cell-based
Conditions: DND41, 72 h
pIC50: −log10 of the molar value.
ENDPOINT_NAME: pIC50

COMPOUND: Nc1ncnn2c([C@@H]3O[C@H](CO)[C@@H](O)[C@H]3O)cc(C#Cc3ccc(F)cc3)c12
ENDPOINT_NAME: pIC50
RELATION: <
RECORDED_VALUE: 4.00
//
COMPOUND: Nc1ncnn2c([C@@H]3O[C@H](CO)[C@@H](O)[C@H]3O)cc(-c3ccccc3)c12
ENDPOINT_NAME: pIC50
RELATION: <
RECORDED_VALUE: 4.00
//
COMPOUND: Nc1ncnn2c([C@@H]3O[C@H](CO)[C@@H](O)[C@H]3O)cc(-c3ccccc3Cl)c12
ENDPOINT_NAME: pIC50
RELATION: =
RECORDED_VALUE: 4.11
//
COMPOUND: CC(=O)O[C@@]12CO[C@@H]1C[C@H](O)[C@@]1(C)C(=O)[C@H](O)C3=C(C)[C@@H](OC(=O)[C@H](O)[C@@H](NC(=O)OC(C)(C)C)c4ccccc4)C[C@@](O)([C@@H](OC(=O)c4ccccc4)[C@H]21)C3(C)C [DOCETAXEL ANHYDROUS]
ENDPOINT_NAME: pIC50
RELATION: =
RECORDED_VALUE: 8.30
//
COMPOUND: Cc1ccccc1-c1cc([C@@H]2O[C@H](CO)[C@@H](O)[C@H]2O)n2ncnc(N)c12
ENDPOINT_NAME: pIC50
RELATION: =
RECORDED_VALUE: 4.03
//
COMPOUND: CCCCC#Cc1cc([C@@H]2O[C@H](CO)[C@@H](O)[C@H]2O)n2ncnc(N)c12
ENDPOINT_NAME: pIC50
RELATION: =
RECORDED_VALUE: 6.40
//
COMPOUND: Nc1ncnn2c([C@@H]3O[C@H](CO)[C@@H](O)[C@H]3O)cc(-c3ccccc3F)c12
ENDPOINT_NAME: pIC50
RELATION: <
RECORDED_VALUE: 4.00

---

Tested on: NCI-H460
Test: Antiproliferative activity against human NCI-H460 cells assessed as reduction in cell viability incubated for 72 hrs by IncuCyte live-cell imaging assay
Type: functional, cell-based
Settings: NCI-H460, 72 h
The following compounds are shown together with reported IC50 values.

COMPOUND: Nc1ncnn2c([C@@H]3O[C@H](CO)[C@@H](O)[C@H]3O)cc(-c3ccccc3)c12
UNIT: µM
RELATION: >
IC50: 100

COMPOUND: Nc1ncnn2c([C@@H]3O[C@H](CO)[C@@H](O)[C@H]3O)cc(-c3ccoc3)c12
UNIT: µM
RELATION: =
IC50: 1.5

COMPOUND: Cc1ccccc1-c1cc([C@@H]2O[C@H](CO)[C@@H](O)[C@H]2O)n2ncnc(N)c12
UNIT: µM
RELATION: >
IC50: 100

COMPOUND: Nc1ncnn2c([C@@H]3O[C@H](CO)[C@@H](O)[C@H]3O)cc(/C=C/c3ccccc3)c12
UNIT: µM
RELATION: =
IC50: 3.7

COMPOUND: Nc1ncnn2c([C@@H]3O[C@H](CO)[C@@H](O)[C@H]3O)cc(-c3ccc(F)cc3)c12
UNIT: µM
RELATION: =
IC50: 55.5

COMPOUND: CN[C@@H]1C[C@H]2O[C@@](C)([C@@H]1OC)n1c3ccccc3c3c4c(c5c6ccccc6n2c5c31)C(=O)NC4 [STAUROSPORINE]
UNIT: µM
RELATION: =
IC50: 0.06

COMPOUND: Nc1ncnn2c([C@@H]3O[C@H](CO)[C@@H](O)[C@H]3O)cc(-c3ccc(Cl)cc3)c12
UNIT: µM
RELATION: =
IC50: 45.9

COMPOUND: CCCCC#Cc1cc([C@@H]2O[C@H](CO)[C@@H](O)[C@H]2O)n2ncnc(N)c12
UNIT: µM
RELATION: =
IC50: 1.7

COMPOUND: COc1ccc(-c2cc([C@@H]3O[C@H](CO)[C@@H](O)[C@H]3O)n3ncnc(N)c23)cc1
UNIT: µM
RELATION: =
IC50: 69.3

COMPOUND: Nc1ncnn2c([C@@H]3O[C@H](CO)[C@@H](O)[C@H]3O)cc(-c3ccccc3F)c12
UNIT: µM
RELATION: >
IC50: 100

COMPOUND: Nc1ncnn2c([C@@H]3O[C@H](CO)[C@@H](O)[C@H]3O)cc(C#Cc3cccs3)c12
UNIT: µM
RELATION: =
IC50: 26.6

COMPOUND: Nc1ncnn2c([C@@H]3O[C@H](CO)[C@@H](O)[C@H]3O)cc(C#Cc3ccccc3)c12
UNIT: µM
RELATION: =
IC50: 38.5

COMPOUND: Nc1ncnn2c([C@@H]3O[C@H](CO)[C@@H](O)[C@H]3O)cc(-c3ccsc3)c12
UNIT: µM
RELATION: =
IC50: 35.6
